TESTED ON: purified recombinant HIV-1 reverse transcriptase (Human immunodeficiency virus type 1 group M subtype B, UniProt P04585)
Construct: purified recombinant HIV-1 reverse transcriptase; made in house; host or cells: Escherichia coli
ASSAY DETAILS: reverse transcriptase inhibition, poly(rA)/(dT) template primer, [3H]dTTP uptake
Type: biochemical
pIC50: −log10 of the molar value.
Listed next: entries and their corresponding pIC50.

The following compounds have reported results that may help.
>  <COMPOUND>
CC(C)c1nc(CCOC(N)=O)n(Cc2cccc([N+](=O)[O-])c2)c1Sc1cc(Cl)cc(Cl)c1 [Compound 128b]

>  <DATA VALUE>
< 3.71

$$$$
>  <COMPOUND>
CC(=O)OCCOCc1nc(Sc2cc(Cl)cc(Cl)c2)c(C(C)C)n1C

>  <DATA VALUE>
< 3.62

$$$$

Kindly review the next compound as well.
**Query** For the compound CC(C)c1nc(CCOC(N)=O)n(Cc2ccccc2[N+](=O)[O-])c1Sc1cc(Cl)cc(Cl)c1 [Compound 128c] , report pIC50.
**Result** < 3.71

====

# key: entry, value: CC50 at 120 h
ASSAY DETAILS: cytotoxicity in MT-4 cells (MTT, culture medium in place of HIV)
Type: cell-based
CONDITION SET: human; MT-4 cells, no virus, 37° C., 5 days, MTT; Table 3; read-out: CC50

Sample answers from the record:
>  <COMPOUND>
CC(=O)OCc1nc(C(C)C)c(Sc2cc(Cl)cc(Cl)c2)n1C

>  <CC50 at 120 h>
12.5 to 25 µg/mL

$$$$
>  <COMPOUND>
CC(C)c1nc(CCO)n(C)c1Sc1cc(Cl)cc(Cl)c1 [Compound I-81a]

>  <CC50 at 120 h>
12.5 µg/mL

$$$$
>  <COMPOUND>
CC(C)c1nc(COC(N)=O)n(Cc2ccccc2)c1Sc1cccc(Cl)c1

>  <CC50 at 120 h>
12.5 to 25 µg/mL

$$$$

Next, consider the following compound.
**Query** Name the recorded CC50 at 120 h of the item CC(C)c1nc(CN)n(Cc2ccccc2)c1Sc1cc(Cl)cc(Cl)c1 in your answer.
**Result** 6.3 to 12.5 µg/mL

====

Recorded IC50 for the following compounds
TESTED ON: purified recombinant HIV-1 reverse transcriptase (Human immunodeficiency virus type 1 group M subtype B, UniProt P04585)
Construct: purified recombinant HIV-1 reverse transcriptase; made in house; host or cells: Escherichia coli
ASSAY DETAILS: reverse transcriptase inhibition, poly(rA)/(dT) template primer, [3H]dTTP uptake
Format: biochemical
Numbers only here, please. The scale is µM.

>  <COMPOUND>
CC(C)c1nc(CO)n(CC2CC2)c1Sc1cc(Cl)cc(Cl)c1

>  <IC50 [µM]>
2.45

$$$$
>  <COMPOUND>
CC(C)c1nc(CCCOC(N)=O)n(Cc2ccncc2)c1Sc1cc(Cl)cc(Cl)c1

>  <IC50 [µM]>
1.88

$$$$

Now, please, on to the next compound.
**Query** Give IC50 for CC(C)c1nc(CN)n(C)c1Sc1cccc(Cl)c1.Cl [Compound I-69, hydrochloride]
**Result** 6.92

====

Collected CC50 at 120 h values appear next to each entry.
ASSAY DETAILS: cytotoxicity in MT-4 cells (MTT, culture medium in place of HIV)
Format: cell-based
CONDITION SET: human; MT-4 cells, no virus, 37° C., 5 days, MTT; Table 3; read-out: CC50

**Query** Give CC50 at 120 h for the following compound: CC(C)c1nc(COC(N)=O)n(Cc2ccccc2)c1Sc1cccc([N+](=O)[O-])c1
**Result** 6.3 to 12.5 µg/mL

**Query** Check the records and state CC50 at 120 h for CCn1c(COC(N)=O)nc(C(C)C)c1Sc1cc(F)cc(F)c1
**Result** 10 to 100 µg/mL

**Query** Quote CC50 at 120 h reported for CCCCCCCCCCCCn1c(CO)nc(C(C)C)c1Sc1cc(Cl)cc(Cl)c1 please.
**Result** 10 to 100 µg/mL

**Query** Identify CC50 at 120 h associated with the compound CCCCn1c(CO)nc(C(C)C)c1Sc1cc(Cl)cc(Cl)c1
**Result** 6.3 to 12.5 µg/mL

**Query** Recall and state the measured CC50 at 120 h for CC(C)c1nc(COC(N)=O)n(C)c1Cc1cc(Cl)cc(Cl)c1 .
**Result** 10 to 100 µg/mL

**Query** Respond only with CC50 at 120 h recorded for CC(C)c1nc(CO)n(C)c1Sc1cccc([N+](=O)[O-])c1
**Result** 12.5 to 25 µg/mL

**Query** # return recorded CC50 at 120 h for entry CCn1c(CN)nc(C(C)C)c1Sc1cc(Cl)cc(Cl)c1
**Result** 1 to 10 µg/mL

**Query** State its CC50 at 120 h: CC(C)c1nc(C=O)n(C)c1Sc1cc(Cl)cc(Cl)c1
**Result** 10 to 100 µg/mL

**Query** For the compound CC(C)c1c(Sc2cccc(Cl)c2)nc(CO)n1C , report CC50 at 120 h.
**Result** 12.5 to 25 µg/mL

**Query** Identify measured CC50 at 120 h associated with CC(C)c1nc(CN)n(C(C)C)c1Sc1cc(Cl)cc(Cl)c1
**Result** 1 to 10 µg/mL
